Cited source for all entries: patent US6255502A

- experimental protocol: Partition coefficient and apparent partition coefficient, n-octanol / phosphate buffer pH 7.4 at 25° C.
- Assay type: physicochemical
- settings: P = Co/Cw, n-octanol / phosphate buffer pH 7.4, 25° C.
Recorded Partition Coefficient by entry

Below: 2 molecules and their reported Partition Coefficient.
CNS(=O)(=O)Cc1ccc2[nH]cc(CCN(C)C)c2c1 [Sumatriptan base] :: 0,69
CC(C)(C)NCC(O)c1ccc(O)c(CO)c1 (centres unmarked) [Salbutamol caprate] :: 0,54

Challenge: Which Partition Coefficient is reported for this molecule? CNS(=O)(=O)Cc1ccc2[nH]cc(CCN(C)C)c2c1 [Sumatriptan caprate, sumatriptan caprate]
Response given: 1,54

Challenge: Please answer likewise for CC(C)(C)NCC(O)c1ccc(O)c(CO)c1 (centres unmarked) [Salbutamol glycodeoxycholate, salbutamol glycodeoxycholate]
Response given: 0,61

Challenge: Please answer likewise for CC(C)(C)NCC(O)c1ccc(O)c(CO)c1 (centres unmarked) [Salbutamol base]
Response given: 0,42
